All figures here come from patent US20180327367A1.

# measuredTarget: SpsB (Staphylococcus aureus signal peptidase) (Staphylococcus aureus)
# Construct: This assay uses a suspension of Staphylococcus aureus cells as a source of SpsB instead of recombinant SpsB protein; endogenous in cells; host or cells: S. aureus, USA300 background, overexpressing SpsB (whole-cell suspension from frozen pellets)
# Sequence (P0A070 whole entry): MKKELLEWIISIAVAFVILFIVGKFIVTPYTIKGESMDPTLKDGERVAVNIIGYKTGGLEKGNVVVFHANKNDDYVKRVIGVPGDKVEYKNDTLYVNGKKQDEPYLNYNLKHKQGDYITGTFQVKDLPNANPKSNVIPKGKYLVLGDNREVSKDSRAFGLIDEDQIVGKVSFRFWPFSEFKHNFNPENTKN
# procedureSummary: cell-based
# Format: biochemical
# experimentalContext: SpsB IC50, whole-cell S. aureus (USA300 background, overexpressing SpsB) as SpsB source; fluorogenic peptide substrate, kinetic read 30 min
readoutKind: IC50 (nM)
// note: answer is a bare numeric in nM

>  <compound>
C[C@@H]1NC(=O)[C@@H](N(C)C(=O)[C@H](CCN)NC(=O)c2ccc(-c3ccc4c(c3)CCCC4)cc2F)c2ccc(OCCN)c(c2)-c2cc(ccc2OCCN)C[C@@H](C(=O)NCC#N)NC1=O

>  <IC50 / nM>
0.94

$$$$
>  <compound>
C[C@@H]1NC(=O)[C@@H](N(C)C(=O)[C@H](CCN)NC(=O)c2ccc(-c3ccc(C4CCCCC4)cc3)cc2)c2ccc(OCCN)c(c2)-c2cc(ccc2OCCN)C[C@@H](C(=O)NCC#N)NC1=O

>  <IC50 / nM>
1.4

$$$$
>  <compound>
Cc1cc(C2CCC2)ccc1C(=O)N[C@@H](CCN)C(=O)N(C)[C@@H]1C(=O)N[C@@H](C)C(=O)N[C@H](C(=O)NCC#N)Cc2ccc(OCCN)c(c2)-c2cc1ccc2OCCN

>  <IC50 / nM>
0.98

$$$$
>  <compound>
CCCCc1ccc(-c2cccc(C(=O)N[C@@H](CCCCN)C(=O)N(C)[C@@H]3C(=O)N[C@@H](C)C(=O)N[C@H](C(=O)NCC#N)Cc4ccc(OCCN)c(c4)-c4cc3ccc4OCCN)c2)cc1

>  <IC50 / nM>
1.1

$$$$
>  <compound>
CCCCCCCCCNCCCC(=O)N(C)[C@@H]1C(=O)N[C@@H](C)C(=O)N[C@H](C(=O)NCC#N)Cc2ccc(OCCN)c(c2)-c2cc1ccc2OCCN

>  <IC50 / nM>
1.1

$$$$
>  <compound>
CCCCCc1ccc(C(=O)N[C@@H](CCN)C(=O)N(C)[C@@H]2C(=O)N[C@@H](C)C(=O)N[C@H](C(=O)NCC#N)Cc3ccc(OCCN)c(c3)-c3cc2ccc3OCCN)c(C)c1

>  <IC50 / nM>
1.1

$$$$

// IC50 lookup, key: `CCCCc1ccc(-c2ccc(C(=O)N[C@@H](Cc3c[nH]cn3)C(=O)N(C)[C@@H]3C(=O)N[C@@H](C)C(=O)N[C@H](C(=O)NCC#N)Cc4ccc(OCCN)c(c4)-c4cc3ccc4OCCN)cc2)cc1` 1.5

Similarly, `CCCCCCCCCCCCCC(=O)N[C@@H](CCN)C(=O)N(C)[C@@H]1C(=O)N[C@@H](C)C(=O)N[C@H](C(=O)NCC#N)Cc2ccc(OCCN)c(c2)-c2cc1ccc2OCC` ? 1

Lookup `Cc1cc(CCC(C)C)ccc1C(=O)N[C@@H](CCN)C(=O)N(C)[C@@H]1C(=O)N[C@@H](C)C(=O)N[C@H](C(=O)NCC#N)Cc2ccc(OCCN)c(c2)-c2cc1ccc2OCCN` 0.88

Also need `CCCCCCCCCCNCCC(=O)N[C@@H](CO)C(=O)N(C)[C@@H]1C(=O)N[C@@H](C)C(=O)N[C@H](C(=O)NCC#N)Cc2ccc(O)c(c2)-c2cc1ccc2O` , thanks. 5

Let us now turn to `Cc1nn(-c2ccc(CC(C)C)cc2)cc1C(=O)N[C@@H](CCN)C(=O)N(C)[C@@H]1C(=O)N[C@@H](C)C(=O)N[C@H](C(=O)NCC#N)Cc2ccc(OCCN)c(c2)-c2cc1ccc2OCCN` 0.9

Entry to check: `C[C@@H]1NC(=O)[C@@H](N(C)C(=O)[C@H](CCCCN)NC(=O)c2ccc(-c3ccc(C(F)(F)F)cc3)cc2)c2ccc(OCCN)c(c2)-c2cc(ccc2OCCN)C[C@@H](C(=O)NCC#N)NC1=O` 0.77

Also need `Cc1cc(-c2ccc(CC(C)C)cc2)cnc1C(=O)N[C@@H](CCN)C(=O)N(C)[C@@H]1C(=O)N[C@@H](C)C(=O)N[C@H](C(=O)NCC#N)Cc2ccc(OCCN)c(c2)-c2cc1ccc2OCCN` , thanks. 0.8

Field entry: `CCCCCCCCc1ccc(C(=O)N[C@@H](CCN)C(=O)N(C)[C@@H]2C(=O)N[C@@H](C)C(=O)N[C@H](C(=O)NCC#N)Cc3ccc(OCCN)c(c3)-c3cc2ccc3OCCN)c(/C=C/C(N)=O)c1` 0.66

###

# Test system: Escherichia coli ATCC 25922
# procedureSummary: Minimum inhibitory concentration, broth micro-dilution (CLSI), E. coli
# Format: cell-based
# experimentalContext: Escherichia coli, ATCC25922, 22 h, read-out: MIC (μg/mL) E. coli, E. coli ATCC 25922; 35° C., 22 hours
# Lookup of reported MIC keyed by entry
The answer is to be given in µg/mL; state only the numeric part.

// known answers, use as guide
>  <compound>
CCCCCCCCCC(=O)N[C@@H](C(=O)N[C@@H](CCN)C(=O)N(C)[C@@H]1C(=O)N[C@@H](C)C(=O)N[C@H](C(=O)NCC#N)Cc2ccc(OCCN)c(c2)-c2cc1ccc2OCCN)C(C)O (single isomer, unassigned) [Compound 357-P2]

>  <readoutKind>
MIC

>  <readingUnit>
µg/mL

>  <reportedMeasurement>
12

$$$$
>  <compound>
C[C@@H]1NC(=O)[C@@H](N(C)C(=O)[C@H](CCN)NC(=O)c2ccc(-c3ccc4c(c3)CCCC4)cc2Cl)c2ccc(OCCN)c(c2)-c2cc(ccc2OCCN)C[C@@H](C(=O)NCC#N)NC1=O [Compound 140]

>  <readoutKind>
MIC

>  <readingUnit>
µg/mL

>  <reportedMeasurement>
0.13

$$$$
>  <compound>
C[C@@H]1NC(=O)[C@@H](N(C)C(=O)[C@H](CCN)NC(=O)/C=C/c2ccc(-c3ccc(Cl)cc3)cc2)c2ccc(OCCN)c(c2)-c2cc(ccc2OCCN)C[C@@H](C(=O)NCC#N)NC1=O [Compound 427]

>  <readoutKind>
MIC

>  <readingUnit>
µg/mL

>  <reportedMeasurement>
1

$$$$

Now consider a different compound.
Requested read-out MIC, target or system Escherichia coli ATCC 25922, entry C[C@@H]1NC(=O)[C@@H](N(C)C(=O)[C@H](CCCCN)NC(=O)c2ccc(/C=C/c3ccccc3)cc2)c2ccc(OCCN)c(c2)-c2cc(ccc2OCCN)C[C@@H](C(=O)NCC#N)NC1=O [Compound 110] 8

###

# System: Methicillin Resistant Staphylococcus aureus strain USA 300, NRS384
# procedureSummary: Minimum inhibitory concentration, broth micro-dilution (CLSI), S. aureus
# Format: cell-based
# experimentalContext: Staphylococcus aureus, MRSA / NRS 384 / USA300, 22 h, MRSA USA 300 NRS384; 35° C., 22 hours; read-out: MIC (μg/mL) S. aureus
readoutKind: MIC
For clarity, give the value followed by its unit.

>  <compound>
C[C@@H]1NC(=O)[C@@H](N(C)C(=O)[C@H](CCO)NC(=O)c2ccc(-c3ccc(Cl)cc3)cc2)c2ccc(OCCN)c(c2)-c2cc(ccc2OCCN)C[C@@H](C(=O)NCC#N)NC1=O [Compound 259]

>  <reportedMeasurement>
0.5 µg/mL

$$$$
>  <compound>
CCCCCc1ccc(C(=O)N[C@@H](CCN)CC(=O)N(C)[C@@H]2C(=O)N[C@@H](C)C(=O)N[C@H](C(=O)NCC#N)Cc3ccc(OCCN)c(c3)-c3cc2ccc3OCCN)c(C)c1 [Compound 512]

>  <reportedMeasurement>
0.38 µg/mL

$$$$

Please look up its MIC: CCCCCCCCCCCCCC(=O)N[C@@H](CCN)C(=O)N(C)[C@@H]1C(=O)N[C@@H](C)C(=O)N[C@H](C(=O)NCC#N)Cc2ccc(OCCN)c(c2)-c2cc1ccc2OCC [Compound 330] 0.25 µg/mL

###

# Test system: Escherichia coli ATCC 25922
# procedureSummary: Minimum inhibitory concentration, broth micro-dilution (CLSI), E. coli
# Assay type: cell-based
# experimentalContext: Escherichia coli, ATCC25922, 22 h, read-out: MIC (μg/mL) E. coli, E. coli ATCC 25922; 35° C., 22 hours
readoutKind: log10 of MIC (log10 of the value in µg/mL)
Recall that a logarithmic scale is used here: each number is log10 of MIC in µg/mL.

Fill in the blank: the reported log10 of MIC of `CCCCCCCOc1ccc(C(=O)N[C@@H](CCN)C(=O)N(C)[C@@H]2C(=O)N[C@@H](C)C(=O)N[C@H](C(=O)NCC#N)Cc3ccc(OCCN)c(c3)-c3cc2ccc3OCCN)c(Cl)c1` is ____. -0.89

Repeat with `Cc1cc(C(C)C)ccc1C(=O)N[C@@H](CCN)C(=O)N(C)[C@@H]1C(=O)N[C@@H](C)C(=O)N[C@H](C(=O)NCC#N)Cc2ccc(OCCN)c(c2)-c2cc1ccc2OCCN` 0.60

And what about the molecule `C[C@@H]1NC(=O)[C@@H](N(C)C(=O)[C@H](CCCCN)NC(=O)c2ccc(-c3ccc(C(F)(F)F)cc3)cc2)c2ccc(OCCN)c(c2)-c2cc(ccc2OCCN)C[C@@H](C(=O)NCC#N)NC1=O` ? 0.90

Okay, and `C[C@@H]1NC(=O)[C@@H](N(C)C(=O)[C@H](CCN)NC(=O)c2ccc(-c3ccc4c(c3)CCCC4)cc2)c2ccc(OCCN)c(c2)-c2cc(ccc2OCCN)C[C@@H](C(=O)NCC#N)NC1=O` ? -0.60

Cool, now `C[C@@H]1NC(=O)[C@@H](N(C)C(=O)[C@H](CCCCN)NC(=O)c2ccc(-c3ccc(-c4ccccc4)cc3)cc2)c2ccc(OCCN)c(c2)-c2cc(ccc2OCCN)C[C@@H](C(=O)NCC#N)NC1=O` -0.12

// next record `C[C@@H]1NC(=O)[C@@H](N(C)C(=O)[C@H](CCCCN)NC(=O)c2ccc(-c3ccc(Cl)cc3)cc2)c2ccc(OCCN)c(c2)-c2cc(ccc2OCCN)C[C@@H](C(=O)N[C@@H](C)C#N)NC1=O` 1.68

Do the same for `CCCCCCc1ccc(NC(=O)N[C@@H](CCN)C(=O)N(C)[C@@H]2C(=O)N[C@@H](C)C(=O)N[C@H](C(=O)NCC#N)Cc3ccc(OCCN)c(c3)-c3cc2ccc3OCCN)c(C)c1` please 0.30

Similarly, `C[C@@H]1NC(=O)[C@@H](N(C)C(=O)[C@H](CCN)NC(=O)c2ccc(-c3ccc4c(c3)CCCC4)cc2F)c2ccc(OCCN)c(c2)-c2cc(ccc2OCCN)C[C@@H](C(=O)NCC#N)NC1=O` ? -0.60

Next up: CCCCCCCCCC(=O)N[C@H](C(=O)N[C@@H](CCN)C(=O)N(C)[C@@H]1C(=O)N[C@@H](C)C(=O)N[C@H](C(=O)NCC#N)Cc2ccc(OCCN)c(c2)-c2cc1ccc2OCCN)C(C)O (single isomer, unassigned) [Compound 357-P1] 1.81

Item: `C[C@@H]1NC(=O)[C@@H](N(C)C(=O)[C@H](CCN)NC(=O)c2ccc(CCc3ccccc3)cc2)c2ccc(OCCN)c(c2)-c2cc(ccc2OCCN)C[C@@H](C(=O)NCC#N)NC1=O` 0.30

How about `C[C@@H]1NC(=O)[C@@H](N(C)C(=O)[C@H](CCCCN)NC(=O)c2ccc(-c3ccc(Cl)cc3)cc2)c2ccc(OCCN)c(c2)-c2cc(ccc2OCCN)C[C@@H](C(=O)NCC#N)NC1=O` ? 1.20

And the next one, `C[C@@H]1NC(=O)[C@@H](N(C)C(=O)[C@H](CCN)NC(=O)c2ccc(-c3ccc(-c4ccccc4)cc3)cc2)c2ccc(OCCN)c(c2)-c2cc(ccc2OCCN)C[C@@H](C(=O)NCC#N)NC1=O` ? -0.60

Same question, C[C@@H]1NC(=O)[C@@H](N(C)C(=O)[C@H](CCCCN)NC(=O)c2ccc(-c3ccc(Cl)cc3)cc2)c2ccc(OCC(O)CN)c(c2)-c2cc(ccc2O)C[C@@H](C(=O)NCC#N)NC1=O (mixture of isomers) this time 1.51

// next record `C[C@@H]1NC(=O)[C@@H](N(C)C(=O)[C@H](CCN)NC(=O)c2ccc(C#Cc3ccccc3)cc2)c2ccc(OCCN)c(c2)-c2cc(ccc2OCCN)C[C@@H](C(=O)NCC#N)NC1=O` -0.36
